assay: Clearance in Sprague-Dawley rat at 2 mg/kg, iv; assay type: ADME, organism-based; set-up: dose 2 mg/kg, route intravenous; settings: in vivo
Label key: true means clearance under 9 mL/min/kg; false means clearance of 9 mL/min/kg or more.

Known results for molecules:
I'd appreciate it if you could check whether CCn1c(=O)cc(Oc2cc(C(=O)NC3CC3)ccc2C)c2cnn(-c3ccc(F)cc3)c21 has clearance smaller than 9 mL/min/kg.
true

I'd appreciate it if you could check whether Cn1c(=O)cc(Nc2cc(C(=O)NC3CC3)ccc2Cl)c2cnn(-c3ccc(F)cc3)c21 has clearance smaller than 9 mL/min/kg.
true

I'd appreciate it if you could check whether Cn1c(=O)cc(Nc2cc(C(=O)NC3CC3)ccc2Cl)c2cnn(-c3cc(F)ccc3F)c21 has clearance smaller than 9 mL/min/kg.
true

***
I'd appreciate it if you could check whether Cc1ccc(C(=O)NC2CC2)cc1Nc1cc(=O)n(C)c2c1cnn2-c1c(F)cccc1F has clearance smaller than 9 mL/min/kg.
false

I'd appreciate it if you could check whether CONC(=O)c1ccc(C)c(Nc2cc(=O)n(C)c3c2cnn3-c2ccc(F)cc2F)c1 has clearance smaller than 9 mL/min/kg.
false
